# experimental system: T1, RTEL1 HHD2 (Homo sapiens, UniProt Q9NZ71 1053-1147)
# T1 sequence: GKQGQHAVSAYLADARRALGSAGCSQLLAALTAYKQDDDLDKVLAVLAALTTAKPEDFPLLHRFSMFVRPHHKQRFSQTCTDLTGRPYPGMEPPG
# test: fluorescence anisotropy; 0.5 mM Mg2+; 20 mM Tris pH 7.5, 50 mM KCl, 0.5 mM MgCl2, 10% glycerol, 0.1% Igepal, 10 nM substrate; EMSA at room temperature 15 min (0-160 nM protein), FA at 25 C (0-2500 nM protein); Hill-slope fit
# run conditions: protein: recombinant; tags: N-terminal 6His-Trx removed by TEV; label: 5' 6-FAM on strand 1; fork with U15 arms (3' on strand 1, 5' on strand 2); end as printed not fully blunt
endpoint label: Kd (nM)
Express the result in nM but write the number alone.

Exercise: I am curious: what Kd value has been reported for RNA fork (R1L:R3L) (dsRNA) RNA 1: CUACCCCCACCCUCACAACCUUUUUUUUUUUUUUU RNA 2: UUUUUUUUUUUUUUUGGUUGUGAGGGUGGGGGUA ?
Solution: 512
